Test system: mAb 1H11
Test: OSTEOMARK competitive immunoassay testing apparent affinity of synthetic peptides for mAb 1H11
Type: binding
Conditions: nanomoles Bone Collagen Equivalents equivalent to 1 μg peptide; back fit into OSTEOMARK standard curve; values between 0.5 and 1 OD averaged
Non-standard residues stand in square brackets, D forms with d. Residues, ends and D or L forms follow the SMILES beside them. Cya = N[C@@H](CS(=O)(=O)O)C(=O)O; pGlu = O=C1CC[C@@H](C(=O)O)N1
READOUT: Results: peptide binding to mAb 1H11, 1 μg synthetic peptide = X nmole BCE

Entry CC(C)[C@H](NC(=O)[C@H](C)NC(=O)[C@H](CCC(=O)O)NC(=O)CNC(=O)[C@H](CC(=O)O)NC(=O)[C@H](Cc1ccc(O)cc1)NC(=O)[C@@H]1CCC(=O)N1)C(=O)NCC(=O)O [SEQ ID NO:28, J Y D G E A V G] ([pGlu]YDGEAVG-OH) , system mAb 1H11: what Results: peptide binding to mAb 1H11, 1 μg synthetic peptide = X nmole BCE was measured?
< 50 nmole BCE

Follow-up entry: CC(C)[C@H](NC(=O)CNC(=O)[C@H](C)NC(=O)CNC(=O)[C@H](CC(=O)O)NC(=O)[C@H](Cc1ccc(O)cc1)NC(=O)[C@@H]1CCC(=O)N1)C(=O)NCC(=O)O [SEQ ID NO:1, J Y D G A G V G] ([pGlu]YDGAGVG-OH)
483 nmole BCE

Follow-up entry: CC(C)[C@H](NC(=O)CNC(=O)[C@H](CCC(=O)O)NC(=O)[C@@H](NC(=O)[C@H](CC(=O)O)NC(=O)[C@H](Cc1ccc(O)cc1)NC(=O)[C@@H]1CCC(=O)N1)C(C)C)C(=O)NCC(=O)O [SEQ ID NO:37, J Y D V E G V G] ([pGlu]YDVEGVG-OH)
6 nmole BCE

Follow-up entry: CC(C)[C@H](NC(=O)CNC(=O)[C@@H](NC(=O)CNC(=O)[C@H](CC(=O)O)NC(=O)[C@H](Cc1ccc(O)cc1)NC(=O)[C@@H]1CCC(=O)N1)[C@@H](C)O)C(=O)NCC(=O)O [SEQ ID NO:17, J Y D G T G V G] ([pGlu]YDGTGVG-OH)
252 nmole BCE

Follow-up entry: CC(C)[C@H](NC(=O)CNC(=O)[C@H](CS(=O)(=O)O)NC(=O)CNC(=O)[C@H](CC(=O)O)NC(=O)[C@H](Cc1ccc(O)cc1)NC(=O)[C@@H]1CCC(=O)N1)C(=O)NCC(=O)O [SEQ ID NO:26, j Y D G X^2 G V G] ([pGlu]YDG[Cya]GVG-OH)
1000 nmole BCE

Follow-up entry: CC(C)[C@H](NC(=O)CNC(=O)[C@H](CCC(=O)O)NC(=O)CNC(=O)[C@H](CC(=O)O)NC(=O)[C@H](Cc1ccc(O)cc1)NC(=O)[C@@H]1CCC(=O)N1)C(=O)NCC(=O)O [SEQ ID NO:4, J Y D G E G V G] ([pGlu]YDGEGVG-OH)
2400 nmole BCE

Follow-up entry: CC(C)[C@H](NC(=O)CNC(=O)[C@H](CCC(N)=O)NC(=O)CNC(=O)[C@H](CC(=O)O)NC(=O)[C@H](Cc1ccc(O)cc1)NC(=O)[C@@H]1CCC(=O)N1)C(=O)NCC(=O)O [SEQ ID NO:14, J Y D G Q G V G] ([pGlu]YDGQGVG-OH)
148 nmole BCE

Follow-up entry: CC[C@H](C)[C@H](NC(=O)CNC(=O)[C@H](CC(=O)O)NC(=O)[C@H](Cc1ccc(O)cc1)NC(=O)[C@@H]1CCC(=O)N1)C(=O)NCC(=O)N[C@H](C(=O)NCC(=O)O)C(C)C [SEQ ID NO:8, J Y D G I G V G] ([pGlu]YDGIGVG-OH)
250 nmole BCE

Follow-up entry: CC(C)[C@H](NC(=O)CNC(=O)[C@H](Cc1ccc(O)cc1)NC(=O)CNC(=O)[C@H](CC(=O)O)NC(=O)[C@H](Cc1ccc(O)cc1)NC(=O)[C@@H]1CCC(=O)N1)C(=O)NCC(=O)O [SEQ ID NO:20, J Y D G Y G V G] ([pGlu]YDGYGVG-OH)
104 nmole BCE

The reported measurements were obtained from patent US5817755A.
